Target: T1, Boi1, P38041
T1 sequence (P38041 1-86, looked up): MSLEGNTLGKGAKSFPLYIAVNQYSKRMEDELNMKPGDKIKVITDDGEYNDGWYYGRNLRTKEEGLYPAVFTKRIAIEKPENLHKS
Experiment: SPOT array
Conditions: median of control spots 1162
Catalogue of binders with associated SPOT intensity

Here's what some known entries look like.
binder	recordedMeasurement
QNTPPLPPKPKSPHL	3
LLRRTIPKRPFYHVL	7
KRRTSLFPWLHKPGI	3
NMLSRPRLAKLPSIR	5
FPGKKSPRLPHRNKK	7

Reported SPOT intensity for VQQDSLPKLPFRSWG was 0

Reported SPOT intensity for TYNRTAFQIPGDQSI was 1

Reported SPOT intensity for KWVRRPKLMTPLTFS was 1

Reported SPOT intensity for RKRAPTPPAPSRSEK was 1

Reported SPOT intensity for HAPPLPPTAPPPPSL was 0

Reported SPOT intensity for RSVKRPRRAPRPVVS was 1

Reported SPOT intensity for VYTRTAFQIPGDDKI was 0

Reported SPOT intensity for RLSRLLLSLPPESFT was 7

Reported SPOT intensity for VAPPPLPNRQLPNLD was 0

Reported SPOT intensity for FVLRYYILIPHEQWD was 6

This collection of values is drawn from paper PMC2756588.
